Measured values drawn from patent US20250276075A1 for this set.

Molecular target: T1, Axl (Homo sapiens, UniProt P30530)
T1 sequence (P30530 26-451 limits assumed): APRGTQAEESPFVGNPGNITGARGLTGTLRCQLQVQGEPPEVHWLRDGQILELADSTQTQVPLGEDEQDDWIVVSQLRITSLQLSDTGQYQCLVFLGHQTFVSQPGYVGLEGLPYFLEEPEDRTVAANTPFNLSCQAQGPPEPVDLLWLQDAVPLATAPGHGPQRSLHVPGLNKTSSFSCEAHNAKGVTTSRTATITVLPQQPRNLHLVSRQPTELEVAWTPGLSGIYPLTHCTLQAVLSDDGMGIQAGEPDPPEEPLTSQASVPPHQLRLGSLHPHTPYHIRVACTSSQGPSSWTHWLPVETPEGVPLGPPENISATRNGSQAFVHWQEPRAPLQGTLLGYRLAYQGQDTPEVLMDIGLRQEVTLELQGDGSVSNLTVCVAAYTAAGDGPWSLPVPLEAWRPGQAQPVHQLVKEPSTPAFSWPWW
Assay: Affinity ELISA of CPE mutant antibodies for binding to Axl at pH 6.0 over pH 7.4
Conditions: heavy chain variable region mutants; 1:9 dilution
Answer each item with its documented Affinity ELISA CPE mutant ratio (1:9, pH 6.0/7.4).
Write the number on its own, no unit after it.

Provide one value: measured Affinity ELISA CPE mutant ratio (1:9, pH 6.0/7.4) of HC-E102F (antibody, V domains shown) VH: EVQLVQSGAEVKKPGATVKISCKVSGYSFTGHTMNWIRQPPGKGLEWIGLIKPSNGGTSYNQKFKGRVTISADKSISTAYLQWSSLKASDTAMYYCAHGHYFSYFAMDYWGQGTLVTVSS VL: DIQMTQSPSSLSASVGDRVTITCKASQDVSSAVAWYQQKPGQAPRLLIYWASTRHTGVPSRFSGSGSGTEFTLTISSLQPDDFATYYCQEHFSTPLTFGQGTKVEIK
1.363

Provide one value: measured Affinity ELISA CPE mutant ratio (1:9, pH 6.0/7.4) of HC-T033I (antibody, V domains shown) VH: EVQLVQSGAEVKKPGATVKISCKVSGYSFTGHIMNWIRQPPGKGLEWIGLIKPSNGGTSYNQKFKGRVTISADKSISTAYLQWSSLKASDTAMYYCAHGHYESYFAMDYWGQGTLVTVSS VL: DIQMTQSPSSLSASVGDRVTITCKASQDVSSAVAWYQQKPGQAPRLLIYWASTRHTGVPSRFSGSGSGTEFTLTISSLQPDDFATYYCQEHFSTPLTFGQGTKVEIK
1.005

Provide one value: measured Affinity ELISA CPE mutant ratio (1:9, pH 6.0/7.4) of HC-W110L (antibody, V domains shown) VH: EVQLVQSGAEVKKPGATVKISCKVSGYSFTGHTMNWIRQPPGKGLEWIGLIKPSNGGTSYNQKFKGRVTISADKSISTAYLQWSSLKASDTAMYYCAHGHYESYFAMDYLGQGTLVTVSS VL: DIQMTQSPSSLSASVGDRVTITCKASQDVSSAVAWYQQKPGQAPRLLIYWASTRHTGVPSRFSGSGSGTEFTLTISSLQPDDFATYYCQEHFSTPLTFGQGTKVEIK
0.924

Provide one value: measured Affinity ELISA CPE mutant ratio (1:9, pH 6.0/7.4) of HC-S059I (antibody, V domains shown) VH: EVQLVQSGAEVKKPGATVKISCKVSGYSFTGHTMNWIRQPPGKGLEWIGLIKPSNGGTIYNQKFKGRVTISADKSISTAYLQWSSLKASDTAMYYCAHGHYESYFAMDYWGQGTLVTVSS VL: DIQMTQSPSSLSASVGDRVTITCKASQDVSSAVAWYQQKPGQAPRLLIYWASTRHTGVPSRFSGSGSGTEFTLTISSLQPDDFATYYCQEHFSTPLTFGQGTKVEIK
2.055

Provide one value: measured Affinity ELISA CPE mutant ratio (1:9, pH 6.0/7.4) of HC-H100D (antibody, V domains shown) VH: EVQLVQSGAEVKKPGATVKISCKVSGYSFTGHTMNWIRQPPGKGLEWIGLIKPSNGGTSYNQKFKGRVTISADKSISTAYLQWSSLKASDTAMYYCAHGDYESYFAMDYWGQGTLVTVSS VL: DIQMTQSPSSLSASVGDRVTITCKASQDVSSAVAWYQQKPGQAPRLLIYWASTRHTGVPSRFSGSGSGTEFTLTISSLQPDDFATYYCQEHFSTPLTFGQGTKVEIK
3.094
